Target: eIF2B mutant B5 R195H (HEK293T ATF4-Fluc cells) (Homo sapiens, UniProt P49770+Q13144+Q9UI10, R195H)
Construct: endogenous in cells
Sequence (Q13144 whole entry R195H, one chain of several): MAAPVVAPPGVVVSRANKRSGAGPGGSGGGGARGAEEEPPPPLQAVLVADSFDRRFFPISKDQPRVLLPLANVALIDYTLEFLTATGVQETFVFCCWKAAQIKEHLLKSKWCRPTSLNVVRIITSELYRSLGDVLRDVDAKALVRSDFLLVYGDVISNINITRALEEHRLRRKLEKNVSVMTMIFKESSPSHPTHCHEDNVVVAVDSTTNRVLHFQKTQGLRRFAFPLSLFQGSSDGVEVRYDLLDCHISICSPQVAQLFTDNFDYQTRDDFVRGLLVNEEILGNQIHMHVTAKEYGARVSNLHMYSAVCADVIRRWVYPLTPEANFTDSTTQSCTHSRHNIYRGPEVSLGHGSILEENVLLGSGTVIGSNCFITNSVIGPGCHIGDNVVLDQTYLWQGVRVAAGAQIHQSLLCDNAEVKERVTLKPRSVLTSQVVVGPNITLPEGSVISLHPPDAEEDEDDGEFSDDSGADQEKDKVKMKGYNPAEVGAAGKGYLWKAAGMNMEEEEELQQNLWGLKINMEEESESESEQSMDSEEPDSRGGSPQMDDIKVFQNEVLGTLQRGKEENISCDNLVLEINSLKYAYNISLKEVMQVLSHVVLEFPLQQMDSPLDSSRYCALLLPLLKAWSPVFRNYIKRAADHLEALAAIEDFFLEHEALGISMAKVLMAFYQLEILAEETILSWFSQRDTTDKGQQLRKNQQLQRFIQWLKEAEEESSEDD
Sequence (Q9NR50 whole entry partner, one chain of several): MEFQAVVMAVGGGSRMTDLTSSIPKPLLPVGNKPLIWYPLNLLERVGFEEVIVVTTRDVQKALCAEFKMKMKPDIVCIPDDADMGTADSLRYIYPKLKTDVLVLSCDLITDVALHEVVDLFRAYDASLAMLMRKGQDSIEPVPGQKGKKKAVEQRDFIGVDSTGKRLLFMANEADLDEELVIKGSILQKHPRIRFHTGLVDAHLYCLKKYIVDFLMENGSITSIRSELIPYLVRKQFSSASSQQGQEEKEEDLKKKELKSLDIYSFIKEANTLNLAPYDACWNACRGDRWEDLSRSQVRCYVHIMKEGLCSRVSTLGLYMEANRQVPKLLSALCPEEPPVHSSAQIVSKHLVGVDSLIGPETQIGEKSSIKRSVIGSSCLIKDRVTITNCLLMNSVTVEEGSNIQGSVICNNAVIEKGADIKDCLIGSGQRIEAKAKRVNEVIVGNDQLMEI
Test: ATF4-Luc assay, VWMD eIF2B mutant B5 R195H
Type: cell-based
Conditions: 1 μg/mL tunicamycin, 7 hours
Experimental: In order to test exemplary compounds of the invention in a cellular context, a stable VWMD cell line was first constructed. […] HEK293T cells carrying the ATF4 luciferase reporter were plated on polylysine coated 384-well plates (Greiner Bio-one) at 30,000 cells per well. […] Luminescence was measured using One Glo (Promega) as specified by the manufacturer. […]
pEC50: −log10 of the molar value.
Answer each item with its documented pEC50.

Query: May I ask what pEC50 has been recorded for O=C(COc1ccc(Cl)cc1)NC12CC(NC(=O)COc3ccc(Cl)cc3)(C1)C2 ?
Result: > 8.00

Query: May I ask what pEC50 has been recorded for O=C(COc1ccc(Cl)c(F)c1)NC12CCC(NC(=O)COc3ccc(Cl)c(F)c3)(CC1)[C@@H](O)C2 (single isomer, unassigned) ?
Result: > 8.00

Query: May I ask what pEC50 has been recorded for O=C(COc1ccc(C(F)(F)F)nc1)NC12CC(NC(=O)COc3ccc(Cl)c(F)c3)(C1)C2 ?
Result: 7.30 to 8.00

Query: May I ask what pEC50 has been recorded for Cc1noc(COCC(=O)NC23CC(NC(=O)COc4ccc(Cl)c(F)c4)(C2)C3)n1 ?
Result: 5.70 to 6.30

---

Answer each item with its documented pEC50.
target: eIF2B mutant B4 R483W (HEK293T ATF4-Fluc cells) (Homo sapiens, UniProt P49770+Q9UI10, R483W); construct: endogenous in cells; experiment: ATF4-Luc assay, VWMD eIF2B mutant B4 R483W; settings: 1 μg/mL tunicamycin, 7 hours
Sequence (Q9UI10 whole entry R483W, one chain of several): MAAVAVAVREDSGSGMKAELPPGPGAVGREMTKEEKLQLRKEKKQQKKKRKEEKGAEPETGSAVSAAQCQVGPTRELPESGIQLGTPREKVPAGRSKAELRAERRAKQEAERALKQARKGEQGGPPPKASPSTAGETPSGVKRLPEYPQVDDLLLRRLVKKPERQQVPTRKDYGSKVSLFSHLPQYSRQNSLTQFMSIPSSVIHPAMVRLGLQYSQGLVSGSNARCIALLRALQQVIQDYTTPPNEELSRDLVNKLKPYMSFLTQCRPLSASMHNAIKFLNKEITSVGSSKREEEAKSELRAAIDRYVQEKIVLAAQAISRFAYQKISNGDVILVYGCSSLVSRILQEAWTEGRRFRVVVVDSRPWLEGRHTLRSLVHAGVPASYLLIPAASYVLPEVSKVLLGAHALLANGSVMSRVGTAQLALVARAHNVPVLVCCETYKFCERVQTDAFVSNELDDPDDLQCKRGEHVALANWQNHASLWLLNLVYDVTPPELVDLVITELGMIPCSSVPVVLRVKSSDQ
Sequence (Q9NR50 whole entry partner, one chain of several): as the sequence (Q9NR50 whole entry partner, one chain of several) above
pEC50: −log10 of the molar value.

Query: May I ask what pEC50 has been recorded for O=C(COc1ccc(Cl)cc1)NC12CC(NC(=O)COc3ccc(Cl)cc3)(C1)C2 ?
Result: > 8.00

Query: May I ask what pEC50 has been recorded for Cc1noc(COCC(=O)NC23CC(NC(=O)COc4ccc(Cl)c(F)c4)(C2)C3)n1 ?
Result: < 5.70

Query: May I ask what pEC50 has been recorded for O=C(COc1ccc(Cl)c(F)c1)NC12CCC(NC(=O)COc3ccc(Cl)c(F)c3)(CC1)[C@@H](O)C2 (single isomer, unassigned) ?
Result: > 8.00

Query: May I ask what pEC50 has been recorded for O=C(COc1ccc(C(F)(F)F)nc1)NC12CC(NC(=O)COc3ccc(Cl)c(F)c3)(C1)C2 ?
Result: > 8.00

---

biological target: eIF2B mutant B3 I346T (HEK293T ATF4-Fluc cells) (Homo sapiens, UniProt P49770+Q9NR50+Q9UI10, I346T); construct: endogenous in cells; assay: ATF4-Luc assay, VWMD eIF2B mutant B3 I346T; conditions: 1 μg/mL tunicamycin, 7 hours
Sequence (Q9NR50 whole entry I346T): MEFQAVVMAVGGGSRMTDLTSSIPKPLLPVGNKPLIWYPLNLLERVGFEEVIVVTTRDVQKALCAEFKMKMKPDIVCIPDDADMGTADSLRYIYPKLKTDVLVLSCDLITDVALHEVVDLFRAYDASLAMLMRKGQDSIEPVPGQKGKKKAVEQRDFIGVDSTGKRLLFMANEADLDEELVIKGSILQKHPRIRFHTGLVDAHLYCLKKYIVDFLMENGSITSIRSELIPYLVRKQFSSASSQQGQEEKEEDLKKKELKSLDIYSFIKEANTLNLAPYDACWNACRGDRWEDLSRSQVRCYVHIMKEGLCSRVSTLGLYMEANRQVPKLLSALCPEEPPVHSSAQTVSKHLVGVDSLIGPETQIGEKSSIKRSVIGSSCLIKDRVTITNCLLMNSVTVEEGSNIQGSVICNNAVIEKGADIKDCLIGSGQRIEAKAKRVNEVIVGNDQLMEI
Sequence (Q14232 whole entry partner): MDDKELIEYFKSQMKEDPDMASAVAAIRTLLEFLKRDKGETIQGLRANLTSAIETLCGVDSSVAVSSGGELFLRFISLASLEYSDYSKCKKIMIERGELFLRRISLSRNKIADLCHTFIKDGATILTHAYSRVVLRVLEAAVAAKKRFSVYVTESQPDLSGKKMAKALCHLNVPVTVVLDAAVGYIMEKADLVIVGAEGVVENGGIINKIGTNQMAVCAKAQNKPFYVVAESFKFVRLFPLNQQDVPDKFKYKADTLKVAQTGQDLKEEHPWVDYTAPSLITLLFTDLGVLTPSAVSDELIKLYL
Sequence (P49770 whole entry): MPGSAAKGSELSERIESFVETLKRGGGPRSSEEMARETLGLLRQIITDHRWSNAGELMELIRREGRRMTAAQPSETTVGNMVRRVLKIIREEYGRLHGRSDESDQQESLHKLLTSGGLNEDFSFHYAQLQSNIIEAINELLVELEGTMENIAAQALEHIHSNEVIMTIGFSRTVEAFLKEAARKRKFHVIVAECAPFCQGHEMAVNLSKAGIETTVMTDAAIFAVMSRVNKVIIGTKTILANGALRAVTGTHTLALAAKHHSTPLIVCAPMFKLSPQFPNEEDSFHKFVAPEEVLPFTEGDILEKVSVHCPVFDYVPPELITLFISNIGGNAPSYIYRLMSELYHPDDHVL
Sequence (Q9UI10 whole entry): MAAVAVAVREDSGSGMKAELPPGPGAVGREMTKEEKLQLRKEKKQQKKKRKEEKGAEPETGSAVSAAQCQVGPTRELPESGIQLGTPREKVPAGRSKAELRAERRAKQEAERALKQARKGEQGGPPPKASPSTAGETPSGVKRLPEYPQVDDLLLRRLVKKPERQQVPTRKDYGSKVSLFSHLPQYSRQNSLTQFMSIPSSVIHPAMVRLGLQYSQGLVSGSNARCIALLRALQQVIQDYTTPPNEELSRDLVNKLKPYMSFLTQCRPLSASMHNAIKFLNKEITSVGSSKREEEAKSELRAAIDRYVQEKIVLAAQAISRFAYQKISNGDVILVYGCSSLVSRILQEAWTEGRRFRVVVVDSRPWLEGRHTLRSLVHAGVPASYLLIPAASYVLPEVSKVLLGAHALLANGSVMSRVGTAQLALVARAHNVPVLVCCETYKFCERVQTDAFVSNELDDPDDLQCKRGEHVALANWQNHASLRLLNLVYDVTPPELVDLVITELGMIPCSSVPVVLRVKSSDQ
Sequence (Q13144 whole entry partner): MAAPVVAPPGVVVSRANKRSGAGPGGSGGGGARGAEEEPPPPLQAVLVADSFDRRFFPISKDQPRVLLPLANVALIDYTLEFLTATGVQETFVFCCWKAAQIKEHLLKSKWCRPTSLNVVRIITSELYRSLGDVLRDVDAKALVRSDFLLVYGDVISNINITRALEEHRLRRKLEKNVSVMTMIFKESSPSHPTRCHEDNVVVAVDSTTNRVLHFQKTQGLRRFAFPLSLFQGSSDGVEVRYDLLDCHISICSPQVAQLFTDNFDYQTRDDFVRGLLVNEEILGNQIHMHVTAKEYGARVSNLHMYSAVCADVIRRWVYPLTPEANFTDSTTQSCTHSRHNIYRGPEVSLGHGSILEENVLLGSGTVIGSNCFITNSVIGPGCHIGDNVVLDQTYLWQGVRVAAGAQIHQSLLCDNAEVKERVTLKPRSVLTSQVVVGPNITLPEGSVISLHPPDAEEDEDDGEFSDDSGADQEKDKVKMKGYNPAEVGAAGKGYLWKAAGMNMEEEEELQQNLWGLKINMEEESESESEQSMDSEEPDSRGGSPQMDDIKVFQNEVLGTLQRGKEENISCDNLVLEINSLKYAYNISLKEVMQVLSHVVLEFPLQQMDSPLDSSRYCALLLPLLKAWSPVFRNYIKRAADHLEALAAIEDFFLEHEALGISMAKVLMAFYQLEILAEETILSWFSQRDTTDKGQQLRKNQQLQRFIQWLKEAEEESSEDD
pEC50: −log10 of the molar value.
ENDPOINT: pEC50

Query: May I ask what pEC50 has been recorded for O=C(COc1ccc(Cl)cc1)NC12CC(NC(=O)COc3ccc(Cl)cc3)(C1)C2 [Compound 112] ?
Result: > 8.00

Query: May I ask what pEC50 has been recorded for O=C(COc1ccc(Cl)c(F)c1)NC12CCC(NC(=O)COc3ccc(Cl)c(F)c3)(CC1)[C@@H](O)C2 (single isomer, unassigned) [Compound 297] ?
Result: > 8.00

Query: May I ask what pEC50 has been recorded for Cc1noc(COCC(=O)NC23CC(NC(=O)COc4ccc(Cl)c(F)c4)(C2)C3)n1 [Compound 217] ?
Result: 5.70 to 6.30

Query: May I ask what pEC50 has been recorded for O=C(COc1ccc(C(F)(F)F)nc1)NC12CC(NC(=O)COc3ccc(Cl)c(F)c3)(C1)C2 [Compound 175] ?
Result: > 8.00

---

Answer each item with its documented pEC50.
target: eIF2B mutant B1 V183F (HEK293T ATF4-Fluc cells) (Homo sapiens, UniProt P49770+Q14232+Q9UI10, V183F); construct: endogenous in cells; test: ATF4-Luc assay, VWMD eIF2B mutant B1 V183F; details: 1 μg/mL tunicamycin, 7 hours
Sequence (Q14232 whole entry V183F): as the sequence (Q14232 whole entry partner) above, with V183F counted along it
Sequence (P49770 whole entry): as the sequence (P49770 whole entry) above
Sequence (Q9NR50 whole entry partner): as the sequence (Q9NR50 whole entry I346T) above, with T346I counted along it
Sequence (Q9UI10 whole entry): as the sequence (Q9UI10 whole entry) above
Sequence (Q13144 whole entry partner): as the sequence (Q13144 whole entry partner) above
pEC50: −log10 of the molar value.

Query: May I ask what pEC50 has been recorded for O=C(COc1ccc(Cl)c(F)c1)NC12CCC(NC(=O)COc3ccc(Cl)c(F)c3)(CC1)[C@@H](O)C2 (single isomer, unassigned) [Compound 297] ?
Result: > 8.00

Query: May I ask what pEC50 has been recorded for O=C(COc1ccc(C(F)(F)F)nc1)NC12CC(NC(=O)COc3ccc(Cl)c(F)c3)(C1)C2 [Compound 175] ?
Result: 6.60 to 7.30

Query: May I ask what pEC50 has been recorded for Cc1noc(COCC(=O)NC23CC(NC(=O)COc4ccc(Cl)c(F)c4)(C2)C3)n1 [Compound 217] ?
Result: < 5.70

Query: May I ask what pEC50 has been recorded for O=C(COc1ccc(Cl)cc1)NC12CC(NC(=O)COc3ccc(Cl)cc3)(C1)C2 [Compound 112] ?
Result: > 8.00

---

biological target: eIF2B mutant B3 H341Q (HEK293T ATF4-Fluc cells) (Homo sapiens, UniProt P49770+Q9NR50+Q9UI10, H341Q); construct: endogenous in cells; assay: ATF4-Luc assay, VWMD eIF2B mutant B3 H341Q; settings: 1 μg/mL tunicamycin, 7 hours
Sequence (Q9NR50 whole entry H341Q, one chain of several): as the sequence (Q9NR50 whole entry partner, one chain of several) above, with H341Q counted along it
Answer each item with its documented EC50.

Query: May I ask what EC50 has been recorded for O=C(COc1ccc(Cl)c(F)c1)NC12CCC(NC(=O)COc3ccc(Cl)c(F)c3)(CC1)[C@@H](O)C2 (single isomer, unassigned) ?
Result: < 10 nM

Query: May I ask what EC50 has been recorded for Cc1noc(COCC(=O)NC23CC(NC(=O)COc4ccc(Cl)c(F)c4)(C2)C3)n1 ?
Result: 500 to 2000 nM

Query: May I ask what EC50 has been recorded for O=C(COc1ccc(Cl)cc1)NC12CC(NC(=O)COc3ccc(Cl)cc3)(C1)C2 ?
Result: < 10 nM

Query: May I ask what EC50 has been recorded for O=C(COc1ccc(C(F)(F)F)nc1)NC12CC(NC(=O)COc3ccc(Cl)c(F)c3)(C1)C2 ?
Result: 10 to 50 nM

---

biological target: eIF2B mutant B4 R357W (HEK293T ATF4-Fluc cells) (Homo sapiens, UniProt P49770+Q9UI10, R357W); construct: endogenous in cells; test: ATF4-Luc assay, VWMD eIF2B mutant B4 R357W; conditions: 1 μg/mL tunicamycin, 7 hours
Sequence (Q9UI10 whole entry R357W, one chain of several): as the sequence (Q9UI10 whole entry R483W, one chain of several) above, with R357W, W483R counted along it
Sequence (Q9NR50 whole entry partner, one chain of several): as the sequence (Q9NR50 whole entry partner, one chain of several) above
pEC50: −log10 of the molar value.
ENDPOINT: pEC50

Query: May I ask what pEC50 has been recorded for Cc1noc(COCC(=O)NC23CC(NC(=O)COc4ccc(Cl)c(F)c4)(C2)C3)n1 [Compound 217] ?
Result: 5.70 to 6.30

Query: May I ask what pEC50 has been recorded for O=C(COc1ccc(Cl)c(F)c1)NC12CCC(NC(=O)COc3ccc(Cl)c(F)c3)(CC1)[C@@H](O)C2 (single isomer, unassigned) [Compound 297] ?
Result: > 8.00

Query: May I ask what pEC50 has been recorded for O=C(COc1ccc(C(F)(F)F)nc1)NC12CC(NC(=O)COc3ccc(Cl)c(F)c3)(C1)C2 [Compound 175] ?
Result: 7.30 to 8.00

Query: May I ask what pEC50 has been recorded for O=C(COc1ccc(Cl)cc1)NC12CC(NC(=O)COc3ccc(Cl)cc3)(C1)C2 [Compound 112] ?
Result: > 8.00

---

Answer each item with its documented EC50.
Biological target: eIF2B mutant B5 R113H (HEK293T ATF4-Fluc cells) (Homo sapiens, UniProt P49770+Q13144+Q9UI10, R113H)
Construct: endogenous in cells
Sequence (Q13144 whole entry R113H, one chain of several): as the sequence (Q13144 whole entry R195H, one chain of several) above, with R113H, H195R counted along it
Sequence (Q9NR50 whole entry partner, one chain of several): as the sequence (Q9NR50 whole entry partner, one chain of several) above
Assay: ATF4-Luc assay, VWMD eIF2B mutant B5 R113H
Settings: 1 μg/mL tunicamycin, 7 hours
Description: In order to test exemplary compounds of the invention in a cellular context, a stable VWMD cell line was first constructed. […] HEK293T cells carrying the ATF4 luciferase reporter were plated on polylysine coated 384-well plates (Greiner Bio-one) at 30,000 cells per well. […] Luminescence was measured using One Glo (Promega) as specified by the manufacturer. […]

Query: May I ask what EC50 has been recorded for Cc1noc(COCC(=O)NC23CC(NC(=O)COc4ccc(Cl)c(F)c4)(C2)C3)n1 ?
Result: > 2000 nM

Query: May I ask what EC50 has been recorded for O=C(COc1ccc(Cl)cc1)NC12CC(NC(=O)COc3ccc(Cl)cc3)(C1)C2 ?
Result: < 10 nM

Query: May I ask what EC50 has been recorded for O=C(COc1ccc(Cl)c(F)c1)NC12CCC(NC(=O)COc3ccc(Cl)c(F)c3)(CC1)[C@@H](O)C2 (single isomer, unassigned) ?
Result: < 10 nM

Query: May I ask what EC50 has been recorded for O=C(COc1ccc(C(F)(F)F)nc1)NC12CC(NC(=O)COc3ccc(Cl)c(F)c3)(C1)C2 ?
Result: 10 to 50 nM
